Hey, just so you know, these numbers are from patent US20250099420A1.

# system: GPR139 (Homo sapiens)
# Sequence (Q6DWJ6 1-353): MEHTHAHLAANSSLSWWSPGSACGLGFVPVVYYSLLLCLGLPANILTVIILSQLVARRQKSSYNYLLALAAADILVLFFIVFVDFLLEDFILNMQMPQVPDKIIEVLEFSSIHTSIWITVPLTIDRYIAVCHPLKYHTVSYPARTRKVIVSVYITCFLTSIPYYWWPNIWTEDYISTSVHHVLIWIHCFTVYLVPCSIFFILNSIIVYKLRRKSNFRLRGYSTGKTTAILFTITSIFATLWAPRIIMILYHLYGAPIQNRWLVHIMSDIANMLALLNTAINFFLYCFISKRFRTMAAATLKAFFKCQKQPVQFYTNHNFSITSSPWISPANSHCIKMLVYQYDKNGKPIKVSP
# methodSummary: GPR139 Agonist titration / agonist counterscreen assay (calcium detection, HEK-GPR139 cells)
# Type: cell-based
# Parameters: expressed in transfected cells; host or cells: HEK Aequorin cells, Maxcyte transient transfection
# conditionNotes: GPR139 Agonist Activity; HEK-GPR139 cells; read-out: EC50
pEC50: −log10 of the molar value.
readoutKind: pEC50

1) CN(CCC(=O)NCC1Cc2cccc(-c3ccccn3)c2O1)C1CCS(=O)(=O)C1 (centres unmarked) : 6.39
2) O=C(CSc1ccc(Cl)cc1)NNC(=O)c1ccc([N+](=O)[O-])cc1 : 6.44
3) O=C(CCOc1ccccc1)NCC1COc2ccccc2O1 (centres unmarked) : 6.56
4) O=C1CCCCN1c1cccc(NS(=O)(=O)c2cc(Cl)ccc2Cl)c1 : 6.43

1 = O=C(CN1N=C(c2ccc(Cl)cc2)CCC1=O)NCCN1CCc2ccccc2C1
2 = CCN1CCCc2cc(CCNC(=O)Nc3ccccc3)ccc21
## Input Of 1 and 2 , which one carries the higher reported pEC50? Response format: the label of the selected entry.
## Output 1

---

# system: GPR139 (Homo sapiens, UniProt Q6DWJ6)
# methodSummary: GPR139 Agonist titration / agonist counterscreen assay (calcium detection, HEK-GPR139 cells)
# Format: cell-based
# Parameters: expressed in transfected cells; host or cells: HEK Aequorin cells, Maxcyte transient transfection
# conditionNotes: GPR139 Agonist Activity; HEK-GPR139 cells; read-out: EC50
pEC50: −log10 of the molar value.
readoutKind: pEC50

Reference set, count: 6
1. CC(=O)N1CCSc2cc(S(=O)(=O)NC3CCC(C)CC3)ccc21 (centres unmarked) : 5.34
2. Cc1nn(CC(=O)NC2CCCc3ccccc32)c(=O)c2c1sc1ccccc12 (centres unmarked) : 6.05
3. O=C(Cn1ncc2c1-c1ccccc1OC2)Nc1ccc(Cl)cc1 [SR-01000098980] : 6.17
4. CN(C)c1ccc(NC(=O)Cn2cc(C=O)c3ccccc32)cc1 : 6.35
5. Cc1onc(-c2ccccc2Cl)c1C(=O)N1CCC(Cn2ccnc2C)CC1 : 6.14
6. CCSc1nc2sccn2c(=O)c1C(=O)NC(C)c1ccccc1 (centres unmarked) : 6.21

a = COC(=O)C(CCSC)NC(=O)C1CC(Cc2ccc3c(c2)OCO3)=NO1 (centres unmarked)
b = O=C(NCCc1ccc(Cl)cc1)c1nnc(Cc2ccc(F)cc2)o1
c = CC(C(=O)NCCn1nnn(-c2ccccc2)c1=O)n1nc2ccccc2n1 (centres unmarked)
d = CCn1c2ccccc2c2cc(C3C(C#N)=C(N)Oc4n[nH]c(C)c43)ccc21 (centres unmarked)
## Input Given 4 molecules, produce a descending ranking by pEC50. Answer by naming the labels in the order asked.
## Output c, b, a, d

A = CCOC(=O)c1cccc(NC(=O)Cc2cccc3ccccc23)c1
B = O=C(CN1C(=O)NC2(CCc3ccccc3C2)C1=O)Nc1cccc2ccccc12 (centres unmarked)
C = O=C(Cn1ncn2cccc2c1=O)NCCc1ccc(Cl)cc1
## Input Hey, can you sort those molecules up there by pEC50, smallest first? Answer by naming the labels in the order asked.
## Output A, B, C
(A: 5.89, B: 6.23, C: 6.56)
